Every entry's value here was drawn from ChEMBL document CHEMBL4261499.

- TEST_SYSTEM: UniProt:Q9Y4D2
- Sequence (Q9Y4D2 whole entry): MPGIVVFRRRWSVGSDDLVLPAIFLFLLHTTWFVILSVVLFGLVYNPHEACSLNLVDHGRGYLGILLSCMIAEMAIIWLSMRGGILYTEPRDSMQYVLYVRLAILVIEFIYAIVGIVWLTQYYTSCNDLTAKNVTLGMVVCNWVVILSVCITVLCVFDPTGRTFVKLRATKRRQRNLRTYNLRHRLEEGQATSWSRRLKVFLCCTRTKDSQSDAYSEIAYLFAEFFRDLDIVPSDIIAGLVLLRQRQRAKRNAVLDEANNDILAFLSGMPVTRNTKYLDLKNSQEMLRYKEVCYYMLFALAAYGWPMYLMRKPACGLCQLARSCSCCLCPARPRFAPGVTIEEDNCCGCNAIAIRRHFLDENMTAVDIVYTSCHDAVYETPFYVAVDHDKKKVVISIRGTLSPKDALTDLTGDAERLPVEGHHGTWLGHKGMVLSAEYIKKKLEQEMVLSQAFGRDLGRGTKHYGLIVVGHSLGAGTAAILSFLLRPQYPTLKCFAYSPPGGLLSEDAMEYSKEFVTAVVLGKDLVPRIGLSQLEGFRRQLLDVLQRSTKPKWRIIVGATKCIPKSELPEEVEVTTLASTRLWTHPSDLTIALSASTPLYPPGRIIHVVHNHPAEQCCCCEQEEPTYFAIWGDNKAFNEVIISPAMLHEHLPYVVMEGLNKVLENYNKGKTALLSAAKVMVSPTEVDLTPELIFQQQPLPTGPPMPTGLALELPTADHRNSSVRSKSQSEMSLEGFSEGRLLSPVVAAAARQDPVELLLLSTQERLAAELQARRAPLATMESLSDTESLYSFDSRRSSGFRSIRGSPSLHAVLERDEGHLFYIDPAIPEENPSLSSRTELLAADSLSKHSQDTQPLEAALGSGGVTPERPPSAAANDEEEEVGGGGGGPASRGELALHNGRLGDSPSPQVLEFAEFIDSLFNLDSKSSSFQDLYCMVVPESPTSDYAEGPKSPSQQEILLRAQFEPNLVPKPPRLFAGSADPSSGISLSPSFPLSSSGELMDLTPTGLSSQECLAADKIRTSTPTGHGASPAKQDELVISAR
- PROTOCOL_NOTES: Inhibition of recombinant human DAGLalpha expressed in HEK293 cells using PNP-butyrate as substrate pretreated for 20 to 30 mins followed by substrate addition measured every 60 secs for 20 mins by colorimetric method
pIC50: −log10 of the molar value.
MEASURE: pIC50

Recorded pIC50, per entry:
O=C(N1CC=C[C@@H](O)[C@@H]1COCc1ccccc1)n1cc(-c2ccc(-c3ccccc3)cc2)nn1 : < 5.00
O=C(N1CCC=C[C@@H]1COCc1ccccc1)n1ccc(-c2ccc(-c3ccccc3)cc2)n1 : < 5.00
O=C(N1CCC=C[C@@H]1COCc1ccccc1)n1ccc(-c2ccc(Br)cc2)n1 : < 5.00
O=C(N1CCC=C[C@@H]1COCc1ccccc1)n1cnc(-c2ccc(Br)cc2)c1 : < 5.00
O=C(N1CCC=C[C@@H]1COCc1ccccc1)n1cnc(-c2ccc(-c3ccccc3)cc2)n1 : < 5.00

Turning now to a further record.
pIC50 for O=C(Oc1ccc([N+](=O)[O-])cc1)N1CCC=C[C@@H]1COCc1ccccc1 is < 5.00
